assay: chemical genetic growth profiling, strain panel (AID 1159580);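 also: tested at 20 µM; growth read once vehicle control cultures reached saturation at 30 °C; 1 = growth at the plate median or of vehicle wells; lower values mean less growth of the strain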; conditions: S. cerevisiae deletion strains, growth OD, locus YLR357W, strain rsc2, active compounds read low
Screen size: about 5,500 compounds; about 2,000 (36%) were called active. Roughly 18% stayed inconclusive and do not appear here. Some of the results follow.
Rule: measured normalized growth below 1 gets condition met; anything equal to or greater than 1 gets condition not met.

Take a look at these entries with their results.
[[record]]
molecule = "NS(=O)(=O)c1cc2c(cc1Cl)NC(C(Cl)Cl)NS2(=O)=O (centres undefined)"
discrete_label = "condition met"

[[record]]
molecule = "NC(CO)C(=O)NNCc1ccc(O)c(O)c1O (centres undefined)"
discrete_label = "condition met"


Note: attention shifts to another entry.
Enquiry: normalized growth strictly < 1 for this molecule? C[C@@H]1C(=O)OC2[C@H](O)C34[C@@H]5OC(=O)[C@@]3(O[C@@H]3OC(=O)[C@H](O)[C@@]34[C@H](C(C)(C)C)[C@H]5O)[C@]21O (some centres undefined)
Return: condition met

###

experiment: chemical genetic growth profiling, strain panel (AID 1159580);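 also: tested at 20 µM; growth read once vehicle control cultures reached saturation at 30 °C; 1 = growth at the plate median or of vehicle wells; lower values mean less growth of the strain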; conditions: S. cerevisiae deletion strains, growth OD, locus YOL147C, strain pex11, active compounds read low
About 2,000 (36%) of roughly 5,500 compounds were called active. Another 18% or so got no clear call; they are omitted. Some of the results follow.
Below, each entry is listed alongside its reported normalized growth.
API doc: respond with a numeric literal and nothing else, no unit.

The following compounds have reported results that may help.
[[record]]
compound = "O=c1cc[nH]c(=S)[nH]1"
experimental_readout = "normalized growth"
endpoint_result = 1.01

[[record]]
compound = "CC(C)COCC(CN(Cc1ccccc1)c1ccccc1)N1CCCC1 (stereo unspecified)"
experimental_readout = "normalized growth"
endpoint_result = 0.989

[[record]]
compound = "CC(=O)OC1CCC2(C)C(=CC=C3C2CCC2(C)C3CCC2C(C)/C=C/C(C)C(C)C)C1(C)C (stereo unspecified)"
experimental_readout = "normalized growth"
endpoint_result = 1

[[record]]
compound = "OC(Cn1cncn1)(Cn1cncn1)c1ccc(F)cc1F"
experimental_readout = "normalized growth"
endpoint_result = 1.01


Enquiry: Entry CC(C)NCC(O)c1cc(O)cc(O)c1 (stereo unspecified) : reported normalized growth = ?
Return: 0.992

Enquiry: Let us now turn to CC(C)C(C)/C=C/C(C)C1CCC2C3=CC=C4CC(O)CCC4(C)C3CCC21C (stereo unspecified)
Return: 0.996

###

assay: chemical genetic growth profiling, strain panel (AID 1159580);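 also: tested at 20 µM; growth read once vehicle control cultures reached saturation at 30 °C; 1 = growth at the plate median or of vehicle wells; lower values mean less growth of the strain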; conditions: S. cerevisiae deletion strains, growth OD, locus YAL030W, strain snc1
The whole screen tested about 5,500 compounds, of which about 2,000 (36%) were called active. About 18% were inconclusive and are not listed. Rule as the data show it: active = normalized growth mostly below about 0.91 (no sharp cut-off); inconclusive = no clear call, values can overlap the other calls; inactive = mostly above about 0.92. The list shows a part of the results.
Respond using exactly one of the listed classes: active, inactive

[[record]]
compound = "CO/N=C(\\C(=O)NC1C(=O)N2C(C(=O)O)=C(COC(N)=O)CSC12)c1ccco1 (centres undefined)"
discrete_label = "inactive"

[[record]]
compound = "OC(Cn1cncn1)(Cn1cncn1)c1ccc(F)cc1F"
discrete_label = "inactive"

[[record]]
compound = "Cc1c(Cl)cccc1Nc1ccccc1C(=O)O"
discrete_label = "active"

[[record]]
compound = "CC(=O)Oc1c(C)cccc1C(=O)O"
discrete_label = "inactive"

[[record]]
compound = "COC(=O)C(O)c1ccccc1 (centres undefined)"
discrete_label = "inactive"

[[record]]
compound = "OCc1ccccc1O"
discrete_label = "inactive"


Enquiry: Each compound tested received a call. Report the one for C=C1C(=O)O[C@@H]2C[C@@]3(C)CCC[C@H](C)C3=C[C@H]12 .
Return: active

Enquiry: Lookup CO/N=C(\C(=O)N[C@@H]1C(=O)N2C(C(=O)O)=C(COC(C)=O)CS[C@H]12)c1csc(N)n1
Return: inactive

Enquiry: Moving on to Oc1ccc(Cl)cc1Cc1cc(Cl)ccc1O
Return: active
